Could you please report measured self-aminoacylation for the items listed next?
Tested on: biotinyl-Met-oxazolone
assayRemarks: self-aminoacylation, catalytic enhancement (BMO) (fold over background); higher = more active; k-Seq, kA / k0A0; sequences stand for … in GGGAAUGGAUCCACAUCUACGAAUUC…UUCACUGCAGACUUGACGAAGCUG
Variants at the floor of the assay were thinned out.
Answer field: number only, no words.

Field: self-aminoacylation (biotinyl-Met-oxazolone). Entry: AUUCACCAAUGUCAUCGGGUG [Fam2.2 aminoacylation ribozyme variant]
9.72

# value lookup — system biotinyl-Met-oxazolone, readout self-aminoacylation, item UUGCUUCAAACAAUCGGUCUG [Fam1A.1 aminoacylation ribozyme variant]
2.25

Provide the documented self-aminoacylation with biotinyl-Met-oxazolone as the system for AUCCACCUCGGUCAUCGGGUG [Fam2.2 aminoacylation ribozyme variant]
7.86

Recall the recorded self-aminoacylation for CCACUCUUAAAGCAAUCGGUC [Fam1B.1 aminoacylation ribozyme variant] with biotinyl-Met-oxazolone and state it.
0.911

Request - read-out self-aminoacylation | tested on biotinyl-Met-oxazolone | sequence CCUCACUUCAAGCAAUCGAUC [Fam1B.1 aminoacylation ribozyme variant]
0.482

# query: self-aminoacylation | item CUAAUUCAAUCAAUCGGUCUG [Fam1A.1 aminoacylation ribozyme variant] | system: biotinyl-Met-oxazolone
0.742

Lab note: need self-aminoacylation with biotinyl-Met-oxazolone for entry CCACAUUUCAAGCAAUCGGCC [Fam1B.1 aminoacylation ribozyme variant] , please look it up.
4.62

Could you share what self-aminoacylation was measured for AUUCACCUCGGUCAUCCGGUG [Fam2.2 aminoacylation ribozyme variant] , tested on biotinyl-Met-oxazolone?
12.2

Field: self-aminoacylation (biotinyl-Met-oxazolone). Entry: CCACUUCAACCAAUCGGUCUG [Fam1A.1 aminoacylation ribozyme variant]
1.7

Recall the recorded self-aminoacylation for CCACACUUCAAACAAUCGUUC [Fam1B.1 aminoacylation ribozyme variant] with biotinyl-Met-oxazolone and state it.
0.697

Form field: self-aminoacylation recorded for AAGUUUGCUAAUAGUCUAAAG [Fam3.1 aminoacylation ribozyme variant] with biotinyl-Met-oxazolone (enter value)
0.959

Form field: self-aminoacylation recorded for CCACACUUCAACCAAGCGGUC [Fam1B.1 aminoacylation ribozyme variant] with biotinyl-Met-oxazolone (enter value)
0.914

# returns recorded self-aminoacylation (system: biotinyl-Met-oxazolone) for AUUCAUCUAGGUCAUCGUGUG [Fam2.2 aminoacylation ribozyme variant]
1.16

Request body: readout self-aminoacylation, system biotinyl-Met-oxazolone, query AAGUUUGCAAAUAUUCGCAAG [Fam3.1 aminoacylation ribozyme variant] . Return the value.
1.25

Param readout = self-aminoacylation; param system = biotinyl-Met-oxazolone; param query = CCACACUUCAAGCGAGCGGUC [Fam1B.1 aminoacylation ribozyme variant] ; response: value
0.603

Recall the recorded self-aminoacylation for AUUACCGUGGUCAUCGAGAGA [Fam2.1 aminoacylation ribozyme variant] with biotinyl-Met-oxazolone and state it.
0.605

// lookup self-aminoacylation | system=biotinyl-Met-oxazolone | key= AAGUUAGCUAAUAGUCGGAAG [Fam3.1 aminoacylation ribozyme variant]
1.12

----------
System: biotinyl-Val-oxazolone
assayRemarks: self-aminoacylation, catalytic enhancement (BVO) (fold over background); higher = more active; k-Seq, kA / k0A0; sequences stand for … in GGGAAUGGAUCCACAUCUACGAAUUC…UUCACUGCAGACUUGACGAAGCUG
Fewer inactive variants are shown than the library holds.
measurementName: self-aminoacylation
In your answer, state the number alone without any accompanying words.

// lookup self-aminoacylation for CUACUUAAAACAAUCGGUCCG [Fam1A.1 aminoacylation ribozyme variant]
0.835

What does the record list as self-aminoacylation for CUACUUCAAACAAUGGGUCAG [Fam1A.1 aminoacylation ribozyme variant] ?
0.589

Query: self-aminoacylation; subject: CCCCAGUUCAAGCAAUCGGUC [Fam1B.1 aminoacylation ribozyme variant]
2.65

So what's the measured self-aminoacylation for this one? CCACACUUCGAGCAAUUGGUC [Fam1B.1 aminoacylation ribozyme variant]
0.956

I would be grateful if you could share the reported self-aminoacylation for CCACACAUCAAGCUAUCGGUC [Fam1B.1 aminoacylation ribozyme variant] .
1.15

Name the recorded self-aminoacylation for CCACUCCUCAAGCAAUCGGUC [Fam1B.1 aminoacylation ribozyme variant] .
1.23

----------
Test system: biotinyl-Trp-oxazolone
assayRemarks: self-aminoacylation, catalytic enhancement (BWO) (fold over background); higher = more active; k-Seq, kA / k0A0; sequences stand for … in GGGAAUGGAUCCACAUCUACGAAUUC…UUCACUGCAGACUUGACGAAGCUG
Variants at the floor of the assay were thinned out.
measurementName: self-aminoacylation
Keep it simple and answer with nothing but the number.

Consider the sequence AAGUUUGCUAAUAGUGGGAAG [Fam3.1 aminoacylation ribozyme variant] and give its measured self-aminoacylation.
0.598

Would you mind telling me what self-aminoacylation value was observed for AUUACCAUGGUCAUCGAGUCA [Fam2.1 aminoacylation ribozyme variant] ?
0.451

Entry AUUCACCUAGGUCAUUGGGUC [Fam2.2 aminoacylation ribozyme variant] : reported self-aminoacylation = ?
0.734

Consider the sequence shown here: AUAACCCUGGUCAUCGAUUGA [Fam2.1 aminoacylation ribozyme variant] What is its recorded self-aminoacylation?
0.392

----------
Tested on: biotinyl-Leu-oxazolone
assayRemarks: self-aminoacylation, catalytic enhancement (BLO) (fold over background); higher = more active; k-Seq, kA / k0A0; sequences stand for … in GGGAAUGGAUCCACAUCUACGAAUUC…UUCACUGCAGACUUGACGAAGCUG
Fewer inactive variants are shown than the library holds.
measurementName: self-aminoacylation
Would you mind answering with just the numeric figure?

What measured self-aminoacylation goes with CCACACUUCAAUCAAUCCGUC [Fam1B.1 aminoacylation ribozyme variant] ?
0.61

Return reported self-aminoacylation; argument: AUUAACCGAGGUCAUCGGGUG [Fam2.2 aminoacylation ribozyme variant]
7.86

What value of measured self-aminoacylation is listed for ACACACUUCAAGCAAUCGGAC [Fam1B.1 aminoacylation ribozyme variant] ?
0.979

Consider the sequence AUUCAUCUAGGUUAUCGGGUG [Fam2.2 aminoacylation ribozyme variant] and give its measured self-aminoacylation.
3.86

Please give the measured self-aminoacylation for this sequence: AUCAUCCUGGUCAUCGAGUGA [Fam2.1 aminoacylation ribozyme variant]
10.1

Requested read-out: self-aminoacylation. Entry: AUUCACCUAGGUCUUCGGCUG [Fam2.2 aminoacylation ribozyme variant]
2.59

Give the measured self-aminoacylation of AUUACCCCUGUCAUCGAGUGA [Fam2.1 aminoacylation ribozyme variant] .
5.42

Can you share its self-aminoacylation? I mean this sequence: CCACACUUGAAGCAAUCCGUC [Fam1B.1 aminoacylation ribozyme variant]
0.905

Record request: self-aminoacylation value, item CUACUGCAAAAAAUCGGUCUG [Fam1A.1 aminoacylation ribozyme variant]
0.638

Name the recorded self-aminoacylation for AUUCACCGAGGUUAUCGGGUG [Fam2.2 aminoacylation ribozyme variant] .
10

Requested read-out: self-aminoacylation. Entry: CUACUUCAAACAAUCAGCCUG [Fam1A.1 aminoacylation ribozyme variant]
1.01

Form field: reported self-aminoacylation of AGGUUUGCUAAUAGACGCAAG [Fam3.1 aminoacylation ribozyme variant]
0.594

// query self-aminoacylation value for entry GUUAACCUAGGUCAUCGGGUG [Fam2.2 aminoacylation ribozyme variant]
16.1

What value of self-aminoacylation has been recorded for this entry: AUAACCCUAGUCAUCGAGUGA [Fam2.1 aminoacylation ribozyme variant]
5.25

# query: self-aminoacylation of entry AUUACCCUGGUCAUCAAAUGA [Fam2.1 aminoacylation ribozyme variant]
0.969

Name the recorded self-aminoacylation for AUUCACCUAGGUCAUUGUGUG [Fam2.2 aminoacylation ribozyme variant] .
1.03

Consider the sequence AUGCACCUAGGUCAUCGCGUG [Fam2.2 aminoacylation ribozyme variant] and give its measured self-aminoacylation.
12

Dear colleague, I am looking for the recorded self-aminoacylation of the following sequence: AUUCACCUUGGUCGUCGGGUG [Fam2.2 aminoacylation ribozyme variant]
2.18

Would you mind telling me what self-aminoacylation value was observed for AUUCACCUAGAUCAUCGGUUG [Fam2.2 aminoacylation ribozyme variant] ?
0.786

Value lookup for self-aminoacylation; key = AUCCACCUAGGUCAUCGGGUU [Fam2.2 aminoacylation ribozyme variant]
19

Field request: self-aminoacylation | item: CCACACUUCAAGCAAUCGGUC [Fam1B.1 aminoacylation ribozyme variant]
1.44

Look up self-aminoacylation for this sequence: CCACACUUCAAGCAAUCGGAA [Fam1B.1 aminoacylation ribozyme variant]
2.04

self-aminoacylation lookup needed for UUACUUCAAACAAUCGGUCUG [Fam1A.1 aminoacylation ribozyme variant] , thanks.
1.69

Need self-aminoacylation, item AUUACCCUCGUCAUCGAGUGG [Fam2.1 aminoacylation ribozyme variant]
1.46

self-aminoacylation for ACACACUUCAAGCAAUCGUUC [Fam1B.1 aminoacylation ribozyme variant] ?
0.787

Using the record for CUACUUCAAACAAUCGAUCUG [Fam1A.1 aminoacylation ribozyme variant] , report its self-aminoacylation.
0.572

// returns reported self-aminoacylation for input CCACACUUCAAGCAUUCAGUC [Fam1B.1 aminoacylation ribozyme variant]
0.576

What value of self-aminoacylation has been recorded for this entry: AUGACCAUGGUCAUCGAGUGA [Fam2.1 aminoacylation ribozyme variant]
8.09

What self-aminoacylation value was documented for this sequence, AUUCCCCUAGUCAUCGAGUGA [Fam2.1 aminoacylation ribozyme variant] ?
11.6

Please give the measured self-aminoacylation for this sequence: AUUCACCUACGUCAUCGGGUC [Fam2.2 aminoacylation ribozyme variant]
1.36

Fill in the blank: the reported self-aminoacylation of CUGCUUCAAACAAUCGGUCUG [Fam1A.1 aminoacylation ribozyme variant] is ____.
2.83

Could you tell me which self-aminoacylation is on file for CUACUUCAAACAAUCGACCUG [Fam1A.1 aminoacylation ribozyme variant] ?
0.45
